# System: IGROV-1
# assay-info: NCI tumour cell line growth inhibition, 48 h
The source made the active and inactive calls. Cut-off read from the data, not from the text of the source: active = GI50 up to about 1.1 µM and inactive = higher.
Outcomes: yes (1) for active, no (0) for inactive

>  <compound>
N#Cc1c(N)nc2c(c1-c1ccc(Br)cc1)CSc1ccccc1-2

>  <class-name>
no (0)

$$$$
>  <compound>
NS(=O)(=O)c1cc2c(cc1Cl)NC(C(=O)NNC(=O)c1ccncc1)=NS2(=O)=O

>  <class-name>
no (0)

$$$$
>  <compound>
CCOC(=N)CC(=O)Nc1ccccc1CC

>  <class-name>
no (0)

$$$$
>  <compound>
O=C(O)CN(c1ccccc1)S(=O)(=O)c1ccc(NC(=O)c2ccccc2)cc1

>  <class-name>
no (0)

$$$$
>  <compound>
CN(Cc1cnc2nc(N)nc(N)c2n1)c1ccc(C(=O)N[C@@H](CCC(=O)O)C(=O)O)cc1 [METHOTREXATE]

>  <class-name>
yes (1)

$$$$
>  <compound>
COc1cc(-c2[nH]ccc2Cl)oc1C1=C2N=C3C=C2C(C(C)C)C1CCCCCCCC3 (stereo not given)

>  <class-name>
yes (1)

$$$$
>  <compound>
O=C(Nc1ccc(Cl)cc1)/C(Cc1cccc[n+]1[O-])=N\Nc1ccc([N+](=O)[O-])cc1[N+](=O)[O-]

>  <class-name>
no (0)

$$$$
>  <compound>
CC(=O)O[C@@H]1C2=C(C3=C([O-])C4=CC=CC(=O)C4C(=O)C3=C2[N+]#N)[C@H](OC(C)=O)[C@@H](OC(C)=O)[C@]1(C)O (stereo not given in full)

>  <class-name>
yes (1)

$$$$
>  <compound>
COC(=O)C1(Cc2cccc(Cl)c2)CCCCCCN1C(=O)c1ccccc1 (stereo not given)

>  <class-name>
no (0)

$$$$
>  <compound>
O=c1[nH]cc(C(F)(C(F)(F)F)C(F)(F)F)c(=O)[nH]1

>  <class-name>
no (0)

$$$$
>  <compound>
O=C(CN1CCCCC1)Nc1ccc2c(c1)C1Oc3ccccc3CC1CO2 (stereo not given)

>  <class-name>
no (0)

$$$$
>  <compound>
CCN(CC)C(=S)N/N=C/c1ccccn1

>  <class-name>
yes (1)

$$$$
>  <compound>
CSCCC(N)P(C)(=O)O (stereo not given)

>  <class-name>
no (0)

$$$$
>  <compound>
CC(C)(C)[Si](OC1CCOC1=O)(c1ccccc1)c1ccccc1 (stereo not given)

>  <class-name>
no (0)

$$$$
>  <compound>
O=C(c1cccc(F)c1F)N1CCc2c([nH]c3ccccc23)C1c1ccc2c(c1)OCO2 (stereo not given)

>  <class-name>
no (0)

$$$$
>  <compound>
CN1C(=O)C(=O)N2c3ccc(Cl)cc3C3(c4ccccc4)N=CC12O3 (stereo not given)

>  <class-name>
no (0)

$$$$
>  <compound>
CC(=O)C1=C(C)N(c2ccc(C)cc2)C2(O)C=CC(=O)C3C(=O)N(c4ccccc4)C(=O)C132 (stereo not given)

>  <class-name>
no (0)

$$$$
>  <compound>
O=C(O)c1cc(Cl)cc(NC(=O)C(Cl)Cl)c1Cl

>  <class-name>
no (0)

$$$$
>  <compound>
O=C(/C=C/c1ccccc1)c1cc(C(=O)/C=C/c2ccccc2)c(O)cc1O

>  <class-name>
no (0)

$$$$
>  <compound>
C=C(C)C(=O)O[C@H]1C[C@@]23O[C@@H]2CCC(=C[C@H]2OC(=O)C(=C)[C@H]12)COC3O (stereo not given in full)

>  <class-name>
no (0)

$$$$
